# TESTED TARGET: T1, full length human OX40L expressed on CHO cells (human, UniProt P23510 1-183)
# T1 sequence: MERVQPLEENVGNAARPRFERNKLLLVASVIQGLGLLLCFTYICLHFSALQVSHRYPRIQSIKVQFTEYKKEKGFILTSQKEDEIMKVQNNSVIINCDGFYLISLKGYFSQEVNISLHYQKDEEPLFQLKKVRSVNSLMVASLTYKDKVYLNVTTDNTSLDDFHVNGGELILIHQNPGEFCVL
# TEST METHOD NOTES: cell-based or functional assay
MEASUREMENT NAME: IC50, IL4 production, T-cell activation assay, donor 1 (nM)
Numbers only, in nM.

BINDER	OBSERVED VALUE
OX40L19A07 (VHH, monovalent Nanobody from E. coli; not shown: C-terminal c-myc and His6 tag) VHH: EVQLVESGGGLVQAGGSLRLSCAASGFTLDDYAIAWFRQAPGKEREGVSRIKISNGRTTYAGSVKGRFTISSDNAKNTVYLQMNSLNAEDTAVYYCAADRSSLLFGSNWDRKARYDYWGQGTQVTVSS	596
OX40L01B11 (VHH, monovalent Nanobody from E. coli; not shown: C-terminal c-myc and His6 tag) VHH: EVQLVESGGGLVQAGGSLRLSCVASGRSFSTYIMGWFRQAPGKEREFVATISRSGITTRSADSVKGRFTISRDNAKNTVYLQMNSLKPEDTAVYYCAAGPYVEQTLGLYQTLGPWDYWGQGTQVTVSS	230
OX40L01E07 (VHH, monovalent Nanobody from E. coli; not shown: C-terminal c-myc and His6 tag) VHH: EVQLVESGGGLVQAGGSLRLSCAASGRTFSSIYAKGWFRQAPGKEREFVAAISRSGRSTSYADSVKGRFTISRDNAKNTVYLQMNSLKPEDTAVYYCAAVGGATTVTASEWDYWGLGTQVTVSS	260

Task: # query: IC50, IL4 production, T-cell activation assay, donor 1 of entry OX40L18E09 (VHH, monovalent Nanobody from E. coli; not shown: C-terminal c-myc and His6 tag) VHH: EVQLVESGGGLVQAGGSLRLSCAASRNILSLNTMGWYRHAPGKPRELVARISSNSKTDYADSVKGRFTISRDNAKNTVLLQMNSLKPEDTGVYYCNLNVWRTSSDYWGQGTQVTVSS
Result: 36
